- Tested on: Eleusine coracana
- Protocol summary: Induction of seed germination in Eleusine coracana (finger mellet) at 20 g/L (reference value: 81 +/- 0.40%)
- Format: functional
Parameter measured: Activity (%)
# unit: % | format: bare number

Consider the reported Activity for these molecules:
[[record]]
molecule = "Cc1ccc(OCc2nnc(N3C(=O)C(Cl)C3c3cccc(Br)c3)o2)c(C(=O)c2ccccc2)c1 (stereo unspecified)"
target_or_test_system = "Eleusine coracana"
parameter_measured = "Activity"
readout_units = "%"
recorded_number = 84

[[record]]
molecule = "Cc1ccc(OCc2nnc(N3C(=O)C(Cl)C3c3cccc(Br)c3)o2)c(C(=O)c2ccc(Cl)cc2)c1 (stereo unspecified)"
target_or_test_system = "Eleusine coracana"
parameter_measured = "Activity"
readout_units = "%"
recorded_number = 85

[[record]]
molecule = "Cc1ccc(C(=O)c2cc(C)ccc2OCc2nnc(N3C(=O)C(Cl)C3c3cccc(Br)c3)o2)cc1 (stereo unspecified)"
target_or_test_system = "Eleusine coracana"
parameter_measured = "Activity"
readout_units = "%"
recorded_number = 86

[[record]]
molecule = "O=C(c1cccc(Cl)c1)c1cc(Cl)ccc1OCc1nnc(N2C(=O)C(Cl)C2c2cccc(Br)c2)o1 (stereo unspecified)"
target_or_test_system = "Eleusine coracana"
parameter_measured = "Activity"
readout_units = "%"
recorded_number = 89

[[record]]
molecule = "Cc1cc(OCc2nnc(N3C(=O)C(Cl)C3c3cccc(Br)c3)o2)c(C(=O)c2ccccc2)cc1Cl (stereo unspecified)"
target_or_test_system = "Eleusine coracana"
parameter_measured = "Activity"
readout_units = "%"
recorded_number = 89


Input line: Note down Activity recorded for COc1ccc(C(=O)c2cc(C)ccc2OCc2nnc(N3C(=O)C(Cl)C3c3cccc(Br)c3)o2)cc1 (stereo unspecified)
Output line: 90

Input line: Return Activity for the following molecule: Cc1ccc(OCc2nnc(N3C(=O)C(Cl)C3c3cccc(Br)c3)o2)c(C(=O)c2ccccc2Cl)c1 (stereo unspecified)
Output line: 86

Input line: Quickly give me recorded Activity for O=C(c1ccccc1)c1ccc(Br)cc1OCc1nnc(N2C(=O)C(Cl)C2c2cccc(Br)c2)o1 (stereo unspecified)
Output line: 86

Input line: Please report Activity for the following molecule: COC(=O)Nc1nc2ccccc2[nH]1 [CARBENDAZIM]
Output line: 85

Input line: Provide only the value of recorded Activity for Cc1ccc(OCc2nnc(N3C(=O)C(Cl)C3c3cccc(Br)c3)o2)c(C(=O)c2cccc(Cl)c2)c1 (stereo unspecified)
Output line: 82

Input line: Give recorded Activity. O=C(c1ccccc1)c1cc(Cl)ccc1OCc1nnc(N2C(=O)C(Cl)C2c2cccc(Br)c2)o1 (stereo unspecified)
Output line: 83

---

- System: Eleusine coracana
- Protocol summary: Phytostimulatory activity in Eleusine coracana (finger mellet) seedlings assessed as vigour index at 40 g/L (reference value: 567 +/- 0.5 no unit)
- Format: functional
Parameter measured: Vigour_index
Answer as a number with no unit attached.

[[record]]
compound = "Cc1ccc(OCc2nnc(N3C(=O)C(Cl)C3c3cccc(Br)c3)o2)c(C(=O)c2cccc(Cl)c2)c1 (stereo not drawn)"
recorded_number = 630

[[record]]
compound = "O=C(c1ccccc1)c1ccc(Br)cc1OCc1nnc(N2C(=O)C(Cl)C2c2cccc(Br)c2)o1 (stereo not drawn)"
recorded_number = 663


Attention now shifts to the item below.
Input line: Please report Vigour_index for the following compound: COC(=O)Nc1nc2ccccc2[nH]1
Output line: 621

---

- Test system: Eleusine coracana
- Protocol summary: Phytostimulatory activity in Eleusine coracana (finger mellet) seedlings assessed as vigour index at 40 g/L (reference value: 567 +/- 0.5 no unit)
- Format: functional
Parameter measured: Vigour_index
The answer should be a number; do not append a unit.

[[record]]
compound = "Cc1ccc(OCc2nnc(N3C(=O)C(Cl)C3c3cccc(Br)c3)o2)c(C(=O)c2ccccc2)c1 (stereo not drawn)"
recorded_number = 620


Please find the next compound below.
Input line: Could you please provide reported Vigour_index for Cc1ccc(OCc2nnc(N3C(=O)C(Cl)C3c3cccc(Br)c3)o2)c(C(=O)c2ccccc2Cl)c1 (stereo not drawn) ? Thanks!
Output line: 692

---

# reported Activity; entries follow
- System: Pyricularia grisea
- Protocol summary: Antifungal activity against Magnaporthe grisea infected finger millet seed assessed as fungal occurrence at 40 g/L after 1 week by stereoscopic analysis (reference value: 12.5 +/- 0.35%)
- Assay type: functional
Form entry: value (%) — number only.

In the examples that follow, each entry is paired with its recorded Activity.
[[record]]
molecule = "O=C(c1cccc(Cl)c1)c1cc(Cl)ccc1OCc1nnc(N2C(=O)C(Cl)C2c2cccc(Br)c2)o1 (stereo not given)"
recorded_number = 0.5

[[record]]
molecule = "COC(=O)Nc1nc2ccccc2[nH]1"
recorded_number = 1

[[record]]
molecule = "Cc1ccc(OCc2nnc(N3C(=O)C(Cl)C3c3cccc(Br)c3)o2)c(C(=O)c2ccccc2Cl)c1 (stereo not given)"
recorded_number = 1

[[record]]
molecule = "Cc1cc(OCc2nnc(N3C(=O)C(Cl)C3c3cccc(Br)c3)o2)c(C(=O)c2ccccc2)cc1Cl (stereo not given)"
recorded_number = 0


Please turn your attention to the following entry.
Input line: Quote Activity reported for Cc1ccc(OCc2nnc(N3C(=O)C(Cl)C3c3cccc(Br)c3)o2)c(C(=O)c2ccccc2)c1 (stereo not given) please.
Output line: 2

---

- System: Eleusine coracana
- Protocol summary: Phytostimulatory activity in Eleusine coracana (finger mellet) seedlings assessed as vigour index at 40 g/L (reference value: 567 +/- 0.5 no unit)
- Assay type: functional
Parameter measured: Vigour_index
I'd appreciate a reply containing only the number, no unit.

[[record]]
compound = "COc1ccc(C(=O)c2cc(C)ccc2OCc2nnc(N3C(=O)C(Cl)C3c3cccc(Br)c3)o2)cc1 (stereo unspecified)"
recorded_number = 688


Input line: Dear colleague, please send me the reported Vigour_index for Cc1ccc(OCc2nnc(N3C(=O)C(Cl)C3c3cccc(Br)c3)o2)c(C(=O)c2ccc(Cl)cc2)c1 (stereo unspecified) when you can.
Output line: 693

Input line: Output measured Vigour_index for this item: Cc1ccc(C(=O)c2cc(C)ccc2OCc2nnc(N3C(=O)C(Cl)C3c3cccc(Br)c3)o2)cc1 (stereo unspecified)
Output line: 659

Input line: State its Vigour_index for this compound: O=C(c1ccccc1)c1cc(Cl)ccc1OCc1nnc(N2C(=O)C(Cl)C2c2cccc(Br)c2)o1 (stereo unspecified)
Output line: 641

Input line: Return the recorded Vigour_index value; entry: Cc1cc(OCc2nnc(N3C(=O)C(Cl)C3c3cccc(Br)c3)o2)c(C(=O)c2ccccc2)cc1Cl (stereo unspecified)
Output line: 656

Input line: Identify measured Vigour_index corresponding to O=C(c1cccc(Cl)c1)c1cc(Cl)ccc1OCc1nnc(N2C(=O)C(Cl)C2c2cccc(Br)c2)o1 (stereo unspecified)
Output line: 700
